System: fibroblasts
Assay: Cell migration assay (Boyden chamber)
Assay type: cell-based
Set-up: scale not given here
Conditions: score, Boyden chamber, scale not defined; potassium salts
Measured Chemokinesis, listed per entry.

molecule | target.of.assay | Chemokinesis
O=C[C@H](OS(=O)(=O)[O-])[C@@H](OS(=O)(=O)[O-])[C@H](OS(=O)(=O)[O-])[C@@H](COS(=O)(=O)[O-])OS(=O)(=O)[O-].[K+].[K+].[K+].[K+].[K+] [Glucose Pentasulfate, potassium glucose pentasulfate] | fibroblasts | 3.0
O=S(=O)(O)OC[C@H]1O[C@@H](OS(=O)(=O)O)[C@H](OS(=O)(=O)O)[C@@H](OS(=O)(=O)O)[C@@H]1O[C@H]1O[C@H](COS(=O)(=O)O)[C@@H](OS(=O)(=O)O)[C@H](OS(=O)(=O)O)[C@H]1OS(=O)(=O)O [Maltose Octasulfate, potassium maltose octasulfate] | fibroblasts | 3.0
